Cited source: patent US20230220073A1

biological target: T1, ROR1 Frizzled domain alone, on transduced SUP-T1 cells (human, UniProt Q01973 165-299); assay: flow cytometry, transduced SUP-T1 cells, anti-human Fc-Dylight647
T1 construct: domain: Fz; also called Fz; ROR1-Fz domain
T1 sequence (Q01973 165-299): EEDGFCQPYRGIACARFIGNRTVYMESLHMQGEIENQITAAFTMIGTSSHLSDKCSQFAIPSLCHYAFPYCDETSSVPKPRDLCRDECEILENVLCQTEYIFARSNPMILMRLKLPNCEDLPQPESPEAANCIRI

{"binder": "Clone E7 chimeric ROR1 antibody (antibody, V domains shown) VH: GKLVESGGGLLKPGGSLKLSCVASGFTFDKYWMHWVRQAPGKGLEWIAEIEYDGTETNYAPSIKDRFTISRDNAKNTLYLQMSNVRSEDAATYFCTTEEMYTTDYYYGFAYWGQGTLVTVSS VL: DIVLTQSPALAVSVGQRATISCRASQSVSISRYNFMHWYQQKPGQQPKLLIYRASNLASGIPARFSGSGSGTDFTLTINPVQADDIATYYCQQNRESPRTFGGGTKLELK", "binding result": "no binding"}
{"binder": "Clone V chimeric ROR1 antibody (antibody, V domains shown) VH: EVQLVESGGGLVQPGRSLKLSCAASGFSFSNYGMHWIRQAPTKGLEWVASISPTGGNTYYRDSVKGRFTISRDNTKSTLYLQMDSLRSEDTATYYCATDDLYYSGPFAYWGQGTLVTVSS VL: DIKMTQSPSFLSASVGDRVTINCKASQNITRFLNWYQQELGEAPTLLIYNTNNLQTGIPSRFSGSGSGTDFTLTISSLQPEDVATYFCLQHGSRPRTFGGGTKLELK", "binding result": "no binding"}
{"binder": "Clone Mu chimeric ROR1 antibody (antibody, V domains shown) VH: QVQLQQSGAELVKPGSSVRISCKASGYTITSYDMHWIKQQPGNGLEGIGWIHPGNGKIKYNQKFNGKATLTVDKSSSTAYMQLSSLTSEDSAVYFCARGTTRVFPWFAYWGQGTLVTVSS VL: QFTLTQPKSVSGSLRSTITIPCERSSGDIGDNYVSWYQQHLGRPPINVIYADDQRPSEVSDRFSGSIDSSSNSASLTITNLQMDDEADYFCQSFDSNFDIPVFGGGTKLTVL", "binding result": "no binding"}
